The measurements presented in this section are drawn from patent US20050101595A1.

Measured On: CDK2/Cyclin A (Homo sapiens)
Method: Inhibition of CDK2/Cyclin A Retinoblastoma Kinase Activity
Condition Summary: apparent Ki, CDK2/proteolyzed cyclin A, Rb fragment substrate, 25 μM ATP
pKi: −log10 of the molar value. Where a name gives a salt, the structure may show the parent alone.
Lab note: anything with pKi at or over 9 counts as met; the rest go in not met.

{"Compound": "CS(=O)(=O)N1CCC(Nc2nc(N)c(C(=O)c3c(F)cccc3F)s2)CC1", "Measured On": "CDK2/Cyclin A (Homo sapiens)", "Assigned Label": "not met"}
{"Compound": "Nc1nc(NC2CCN(S(=O)(=O)c3ccc(-c4ccccn4)s3)CC2)sc1C(=O)c1c(F)cccc1F", "Measured On": "CDK2/Cyclin A (Homo sapiens)", "Assigned Label": "met"}
{"Compound": "Nc1nc(NC2CCN(S(=O)(=O)CCn3cccc3)CC2)sc1C(=O)c1c(F)cccc1F [Example K34, Trifluoroacetic Acid Salt]", "Measured On": "CDK2/Cyclin A (Homo sapiens)", "Assigned Label": "not met"}
{"Compound": "Nc1nc(NC2CCN(S(=O)(=O)c3ccc(NCC(O)CO)nc3)CC2)sc1C(=O)c1c(F)cccc1F (stereo not shown)", "Measured On": "CDK2/Cyclin A (Homo sapiens)", "Assigned Label": "not met"}
{"Compound": "Nc1nc(NC2CCN(S(=O)(=O)c3ccc(N4CCCC(O)C4)nc3)CC2)sc1C(=O)c1c(F)cccc1F (stereo not shown) [Example G12, Trifluoroacetic Acid Salt]", "Measured On": "CDK2/Cyclin A (Homo sapiens)", "Assigned Label": "met"}
{"Compound": "Nc1nc(NC2CCN(S(=O)(=O)c3ccc(-c4ccncc4)nc3)CC2)sc1C(=O)c1c(F)cccc1F", "Measured On": "CDK2/Cyclin A (Homo sapiens)", "Assigned Label": "met"}
{"Compound": "Nc1nc(NC2CCN(S(=O)(=O)CCCNCc3cccc(F)c3)CC2)sc1C(=O)c1c(F)cccc1F", "Measured On": "CDK2/Cyclin A (Homo sapiens)", "Assigned Label": "not met"}
{"Compound": "COc1ccc(S(=O)(=O)N2CCC(Nc3nc(N)c(C(=O)c4c(F)cccc4F)s3)CC2)cc1OC", "Measured On": "CDK2/Cyclin A (Homo sapiens)", "Assigned Label": "met"}
{"Compound": "Nc1nc(NC2CCN(S(=O)(=O)CCCSc3ccccn3)CC2)sc1C(=O)c1c(F)cccc1F", "Measured On": "CDK2/Cyclin A (Homo sapiens)", "Assigned Label": "not met"}
{"Compound": "Nc1nc(NC2CCN(S(=O)(=O)CCNCCN3CCCC3)CC2)sc1C(=O)c1c(F)cccc1F [Example K28, Trifluoroacetic Acid Salt]", "Measured On": "CDK2/Cyclin A (Homo sapiens)", "Assigned Label": "not met"}
{"Compound": "CC1CCC(C)N1CCS(=O)(=O)N1CCC(Nc2nc(N)c(C(=O)c3c(F)cccc3F)s2)CC1 (mixture of isomers) [Example K26, Trifluoroacetic Acid Salt]", "Measured On": "CDK2/Cyclin A (Homo sapiens)", "Assigned Label": "not met"}
{"Compound": "CC1(C)CC(Nc2nc(N)c(C(=O)c3c(F)cccc3F)s2)CC(C)(C)N1", "Measured On": "CDK2/Cyclin A (Homo sapiens)", "Assigned Label": "not met"}
{"Compound": "C=CCNCCCS(=O)(=O)N1CCC(Nc2nc(N)c(C(=O)c3c(F)cccc3F)s2)CC1 [Example K57, Trifluoroacetic Acid Salt]", "Measured On": "CDK2/Cyclin A (Homo sapiens)", "Assigned Label": "not met"}
{"Compound": "CN(C)c1ccc(S(=O)(=O)N2CCC(Nc3nc(N)c(C(=O)c4c(F)cccc4F)s3)CC2)cn1", "Measured On": "CDK2/Cyclin A (Homo sapiens)", "Assigned Label": "not met"}
{"Compound": "Nc1nc(NC2CCN(S(=O)(=O)c3ccc(O)nc3)CC2)sc1C(=O)c1c(F)cccc1F [Example H1, Trifluoroacetic Acid Salt]", "Measured On": "CDK2/Cyclin A (Homo sapiens)", "Assigned Label": "met"}
{"Compound": "Nc1nc(NC2CCN(S(=O)(=O)CCN3CCCC3)CC2)sc1C(=O)c1c(F)cccc1F", "Measured On": "CDK2/Cyclin A (Homo sapiens)", "Assigned Label": "not met"}
{"Compound": "Cn1cc(S(=O)(=O)N2CCC(Nc3nc(N)c(C(=O)c4c(F)cccc4F)s3)CC2)nc1Br", "Measured On": "CDK2/Cyclin A (Homo sapiens)", "Assigned Label": "not met"}

----------
Measured On: human CDK4 and genetically truncated (1-264) cyclin D3 (Homo sapiens, UniProt P11802)
Sequence (P11802 whole entry, the tested form may be a part): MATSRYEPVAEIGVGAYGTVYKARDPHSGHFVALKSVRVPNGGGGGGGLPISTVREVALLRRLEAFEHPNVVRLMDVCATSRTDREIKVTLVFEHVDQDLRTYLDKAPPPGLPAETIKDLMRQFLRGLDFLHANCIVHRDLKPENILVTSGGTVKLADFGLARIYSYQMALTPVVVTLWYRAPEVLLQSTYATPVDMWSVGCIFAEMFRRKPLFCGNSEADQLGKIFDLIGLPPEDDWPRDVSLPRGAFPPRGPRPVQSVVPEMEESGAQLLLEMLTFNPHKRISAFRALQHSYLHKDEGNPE
Sequence (P30281 1-264 partner): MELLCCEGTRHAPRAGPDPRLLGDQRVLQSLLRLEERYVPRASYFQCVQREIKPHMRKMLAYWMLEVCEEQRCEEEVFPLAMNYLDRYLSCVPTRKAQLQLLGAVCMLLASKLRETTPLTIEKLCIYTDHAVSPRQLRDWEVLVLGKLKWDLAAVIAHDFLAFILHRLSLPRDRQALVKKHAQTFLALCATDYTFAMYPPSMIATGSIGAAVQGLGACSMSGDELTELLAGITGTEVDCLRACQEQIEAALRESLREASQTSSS
Method: Inhibition of CDK4/Cyclin D Retinoblastoma Kinase Activity
Type: biochemical
Condition Summary: 0.03 μM compound; Table 4

{"Molecule": "CC(=O)OC(C(=O)N1CCC(Nc2nc(N)c(C(=O)c3c(F)cccc3F)s2)CC1)c1ccccc1 (stereo not shown)", "CDK4 % Inhibition at 0.03 μM, %": 7}
{"Molecule": "Nc1nc(NC2CCN(C(=O)C3CC3)CC2)sc1C(=O)c1c(F)cccc1F", "CDK4 % Inhibition at 0.03 μM, %": 18}
{"Molecule": "CC(C)=CC(=O)N1CCC(Nc2nc(N)c(C(=O)c3c(F)cccc3F)s2)CC1", "CDK4 % Inhibition at 0.03 μM, %": 17}
{"Molecule": "Cc1cccc(C(=O)N2CCC(Nc3nc(N)c(C(=O)c4c(F)cccc4F)s3)CC2)c1", "CDK4 % Inhibition at 0.03 μM, %": 60}

----------
Measured On: human CDK4 and genetically truncated (1-264) cyclin D3 (Homo sapiens, UniProt P11802)
Method: Inhibition of CDK4/Cyclin D Retinoblastoma Kinase Activity
Type: biochemical
Condition Summary: at 0.03 μM

{"Molecule": "Nc1nc(NC2CCN(C(=O)c3c(Cl)cccc3Cl)CC2)sc1C(=O)c1c(F)cccc1F", "CDK4 % Inhibition at 0.03 μM": "30%"}
{"Molecule": "Nc1nc(NC2CCN(C(=O)CNc3ccc(O)cc3)CC2)sc1C(=O)c1c(F)cccc1F", "CDK4 % Inhibition at 0.03 μM": "40%"}
{"Molecule": "Nc1nc(NC2CCN(C(=O)c3cccnc3Cl)CC2)sc1C(=O)c1c(F)cccc1F", "CDK4 % Inhibition at 0.03 μM": "46%"}
{"Molecule": "Cc1oc(-c2ccccc2)cc1C(=O)N1CCC(Nc2nc(N)c(C(=O)c3c(F)cccc3F)s2)CC1", "CDK4 % Inhibition at 0.03 μM": "15%"}
{"Molecule": "Nc1nc(NC2CCN(C(=O)c3cccnc3Sc3ccc(Cl)cc3)CC2)sc1C(=O)c1c(F)cccc1F", "CDK4 % Inhibition at 0.03 μM": "2%"}
{"Molecule": "COc1ccccc1C(=O)N1CCC(Nc2nc(N)c(C(=O)c3c(F)cccc3F)s2)CC1", "CDK4 % Inhibition at 0.03 μM": "65%"}
{"Molecule": "Nc1nc(NC2CCN(C(=O)c3ccc(C(F)(F)F)cc3F)CC2)sc1C(=O)c1c(F)cccc1F", "CDK4 % Inhibition at 0.03 μM": "21%"}
{"Molecule": "CC(C)(C)COC(=O)N1CCC(Nc2nc(N)c(C(=O)c3c(F)cccc3F)s2)CC1", "CDK4 % Inhibition at 0.03 μM": "−3%"}
{"Molecule": "Nc1nc(NC2CCN(C(=O)[C@H](Cc3ccccc3)NS(=O)(=O)c3cccc4ccccc34)CC2)sc1C(=O)c1c(F)cccc1F", "CDK4 % Inhibition at 0.03 μM": "19%"}
{"Molecule": "CC(=O)Oc1ccccc1C(=O)N1CCC(Nc2nc(N)c(C(=O)c3c(F)cccc3F)s2)CC1", "CDK4 % Inhibition at 0.03 μM": "48%"}
{"Molecule": "COc1c(C(=O)N2CCC(Nc3nc(N)c(C(=O)c4c(F)cccc4F)s3)CC2)csc1Cl", "CDK4 % Inhibition at 0.03 μM": "55%"}
{"Molecule": "Cc1nn(C)c2ccc(C(=O)N3CCC(Nc4nc(N)c(C(=O)c5c(F)cccc5F)s4)CC3)c(Cl)c12", "CDK4 % Inhibition at 0.03 μM": "32%"}
{"Molecule": "CCCSc1ncccc1C(=O)N1CCC(Nc2nc(N)c(C(=O)c3c(F)cccc3F)s2)CC1", "CDK4 % Inhibition at 0.03 μM": "66%"}
{"Molecule": "Nc1nc(NC2CCN(C(=O)[C@H](Cc3ccccc3)NS(=O)(=O)c3ccc([N+](=O)[O-])cc3)CC2)sc1C(=O)c1c(F)cccc1F", "CDK4 % Inhibition at 0.03 μM": "20%"}
{"Molecule": "CCC(C(=O)N1CCC(Nc2nc(N)c(C(=O)c3c(F)cccc3F)s2)CC1)c1ccccc1 (stereo not shown) [Example R10]", "CDK4 % Inhibition at 0.03 μM": "29%"}
{"Molecule": "Cc1cc(C)c(C(=O)N2CCC(Nc3nc(N)c(C(=O)c4c(F)cccc4F)s3)CC2)c(C)c1", "CDK4 % Inhibition at 0.03 μM": "20%"}
{"Molecule": "COc1ccc(OC)c(C(=O)N2CCC(Nc3nc(N)c(C(=O)c4c(F)cccc4F)s3)CC2)c1", "CDK4 % Inhibition at 0.03 μM": "66%"}
{"Molecule": "CCOc1ccccc1C(=O)N1CCC(Nc2nc(N)c(C(=O)c3c(F)cccc3F)s2)CC1 [Example R119]", "CDK4 % Inhibition at 0.03 μM": "31%"}
{"Molecule": "Nc1nc(NC2CCN(C(=O)c3ccccc3)CC2)sc1C(=O)c1c(F)cccc1F", "CDK4 % Inhibition at 0.03 μM": "18%"}
